molecular target: Sialic acid-binding Ig-like lectin 9 (Homo sapiens); test: Hs-Siglec9 ALPHAscreen SOP 20170721; parameters: scale not given: direction of the effect not stated beside the values; conditions: 10 µM
READOUT KIND: Percent Effect (%)
Give just the numeric value; % need not be written.

-- ask Recorded Percent Effect of `CN(C)c1ccc(CCNC(=O)NCc2ccc(N(C)C)nc2)cc1` , please.
-- reply 11.2

-- ask Recorded Percent Effect of CC(=O)Nc1nc(C(=O)N2CCCC(c3cc(C)[nH]n3)C2)cs1 (stereo unspecified) , please.
-- reply 8.53

-- ask Recorded Percent Effect of Cn1cnnc1C1CCCN(C(=O)Cc2ccc3c(c2)OCCO3)C1 (stereo unspecified) , please.
-- reply -2.52

-- ask Recorded Percent Effect of COCCOc1ccc(NC(=O)N2CCCC2c2ccncc2)cn1 (stereo unspecified) , please.
-- reply 5.29

-- ask Recorded Percent Effect of COCC1CC2(CCN(C(=O)c3ccc(OC)c(Cl)c3)CC2)CO1 (stereo unspecified) , please.
-- reply -7.51

-- ask Recorded Percent Effect of `O=C(Cc1ccccc1F)N1C[C@@H]2COC[C@]2(COc2cccnc2)C1` , please.
-- reply 0.934

-- ask Recorded Percent Effect of `COC(=O)c1cccc(NC(=O)CCn2nc(-c3cccs3)oc2=O)c1` , please.
-- reply -7.27

-- ask Recorded Percent Effect of `O=C(NCCCn1cccn1)C1(c2ccc(Br)cc2)CC1` , please.
-- reply -1.49

-- ask Recorded Percent Effect of `COc1cc(NC(=O)c2ccccc2F)c(C(=O)N(C)C)cc1OC` , please.
-- reply 2.38

-- ask Recorded Percent Effect of `Cc1cnc(CNc2c(F)cccc2-n2cccn2)o1` , please.
-- reply 5.6

-- ask Recorded Percent Effect of O=C(NCC1CCCO1)c1c(-n2cnnn2)sc2c1CCC2 (stereo unspecified) , please.
-- reply -1.47

* * *

target: AMP-activated protein kinase, AMPK (Homo sapiens) (UniProt P54646+O43741+P54619+Q9UGJ0+Q9Y478+Q13131+Q9UGI9); experiment: AMP-dependent Kinase enzyme assay. An in vitro enzyme assay that detects ADP turnover that is directly proportional to AMPK activity. This uses naive AMPK that is activated during the assay with MK-8722; type: functional; design: scale not given: direction of the effect not stated beside the values; conditions: 30 µM
Could you please report measured Percent Effect for the items listed next?
Give just the numeric value; % need not be written.

-- ask Recorded Percent Effect of `CN(Cc1ccco1)Cc1ccccc1CNC(=O)c1ccc[nH]1` , please.
-- reply -0.911

-- ask Recorded Percent Effect of `c1cnc(N2CCC3(CCN(Cc4ccncc4)CC3)CC2)nc1` , please.
-- reply 7.11

-- ask Recorded Percent Effect of CCn1cnnc1CNC(=O)NCC(c1cccs1)N1CCCC1 (stereo unspecified) , please.
-- reply 0.236

-- ask Recorded Percent Effect of Cc1cc(CN(C)C2CCCN(Cc3noc(C4CC4)n3)C2)no1 (stereo unspecified) , please.
-- reply -10.8

-- ask Recorded Percent Effect of `COC(=O)c1cccn1C1CCN(C(=O)c2cc(F)ccc2F)CC1` , please.
-- reply 1.19

-- ask Recorded Percent Effect of `Cn1cccc1C(=O)N[C@@H]1CN(CC2CC2)[C@@H]2COC[C@@H]21` , please.
-- reply -1.14

-- ask Recorded Percent Effect of Cc1cnn(CC2CCCCN2C(=O)c2ccc3[nH]nnc3c2)c1 (stereo unspecified) , please.
-- reply 5.5

-- ask Recorded Percent Effect of COc1ccc(C(=O)N2CCCC2c2ccco2)cc1OC (stereo unspecified) , please.
-- reply -1.48

-- ask Recorded Percent Effect of `Cc1nc(C)c(C(=O)NCCNC(=O)Cc2ccccc2)s1` , please.
-- reply -4.83

-- ask Recorded Percent Effect of Cc1nnc(CN2CCC(N(C)Cc3nnc(C4CC4)n3C)C2)o1 (stereo unspecified) , please.
-- reply -9.74

-- ask Recorded Percent Effect of `N#Cc1ccnc(N2CCN(Cc3cccc(F)c3)CC2)c1` , please.
-- reply -3.8

Source listed as ChEMBL document CHEMBL3988442.
